tested_on: T1, human glycophorin A in the red blood cell membrane (human, UniProt P02724 20-150)
T1 construct: whole, on cells; used for intact RBC, isolated RBC membranes and transfected cells; the assay field tells which; also called GPA; hGPA
T1 sequence (looked up): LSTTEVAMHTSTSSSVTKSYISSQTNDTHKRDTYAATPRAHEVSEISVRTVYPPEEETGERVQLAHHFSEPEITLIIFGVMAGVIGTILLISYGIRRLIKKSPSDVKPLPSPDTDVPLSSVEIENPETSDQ
protocol_summary: ELISA, human RBC membranes;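 also: antibodies bound to isolated human red blood cell membrane ghosts coated on 96-well plates, tested 1.5 h at room temperature, bound antibody quantified with a detection antibody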
Grouping key: binding by ELISA relative to parental. Bins: 0 (below 0.5), 1 (0.5 to below 0.7), 2 (0.7 or more)

Textbook exercise: identify the category of the binder given here, TPP-5344 (Fab, V domains shown, also called VL: (V29I)) VH: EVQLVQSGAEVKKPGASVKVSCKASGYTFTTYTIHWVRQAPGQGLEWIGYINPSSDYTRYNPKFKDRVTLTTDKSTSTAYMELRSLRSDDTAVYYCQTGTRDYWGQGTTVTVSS VL: DIQLTQSPSFLSASVGDRVTITCSAASSISYIYWFQQKPGKAPKLLIYSTSTLPSGVPSRFSGSGSGTEYTLTISSLQPEDFATYYCHQRNSFPFTFGQGTKLEIKR , according to its measured value.
1

Textbook exercise: identify the category of the binder given here, TPP-5324 (Fab, V domains shown, also called VH: (Y57S)) VH: EVQLVQSGAEVKKPGASVKVSCKASGYTFTTYTIHWVRQAPGQGLEWIGYINPSSDSTRYNPKFKDRVTLTTDKSTSTAYMELRSLRSDDTAVYYCQTGTRDYWGQGTTVTVSS VL: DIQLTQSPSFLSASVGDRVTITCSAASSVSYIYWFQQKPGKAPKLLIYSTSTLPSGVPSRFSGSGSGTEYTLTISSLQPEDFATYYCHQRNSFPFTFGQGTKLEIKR , according to its measured value.
0

Textbook exercise: identify the category of the binder given here, TPP-5333 (Fab, V domains shown, also called VH: (R84S)) VH: EVQLVQSGAEVKKPGASVKVSCKASGYTFTTYTIHWVRQAPGQGLEWIGYINPSSDYTRYNPKFKDRVTLTTDKSTSTAYMELSSLRSDDTAVYYCQTGTRDYWGQGTTVTVSS VL: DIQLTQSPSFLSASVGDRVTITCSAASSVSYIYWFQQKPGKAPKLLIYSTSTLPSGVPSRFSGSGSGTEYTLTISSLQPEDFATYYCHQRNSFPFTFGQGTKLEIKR , according to its measured value.
1

Textbook exercise: identify the category of the binder given here, TPP-5346 (Fab, V domains shown, also called VL: (Y33A)) VH: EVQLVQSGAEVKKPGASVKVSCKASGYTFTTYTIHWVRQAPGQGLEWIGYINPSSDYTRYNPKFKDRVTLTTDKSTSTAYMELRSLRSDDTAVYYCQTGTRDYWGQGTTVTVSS VL: DIQLTQSPSFLSASVGDRVTITCSAASSVSYIAWFQQKPGKAPKLLIYSTSTLPSGVPSRFSGSGSGTEYTLTISSLQPEDFATYYCHQRNSFPFTFGQGTKLEIKR , according to its measured value.
0

Textbook exercise: identify the category of the binder given here, TPP-5353 (Fab, V domains shown, also called VL: (R90L)) VH: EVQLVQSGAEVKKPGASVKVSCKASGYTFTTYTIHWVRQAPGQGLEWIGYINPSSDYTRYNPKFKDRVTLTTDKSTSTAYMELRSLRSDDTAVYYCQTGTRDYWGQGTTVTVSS VL: DIQLTQSPSFLSASVGDRVTITCSAASSVSYIYWFQQKPGKAPKLLIYSTSTLPSGVPSRFSGSGSGTEYTLTISSLQPEDFATYYCHQLNSFPFTFGQGTKLEIKR , according to its measured value.
0

Textbook exercise: identify the category of the binder given here, TPP-5327 (Fab, V domains shown, also called VH: (P62Q)) VH: EVQLVQSGAEVKKPGASVKVSCKASGYTFTTYTIHWVRQAPGQGLEWIGYINPSSDYTRYNQKFKDRVTLTTDKSTSTAYMELRSLRSDDTAVYYCQTGTRDYWGQGTTVTVSS VL: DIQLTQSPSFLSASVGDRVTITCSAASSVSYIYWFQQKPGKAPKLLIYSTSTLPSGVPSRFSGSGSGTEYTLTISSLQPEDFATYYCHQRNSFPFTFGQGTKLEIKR , according to its measured value.
2

Textbook exercise: identify the category of the binder given here, TPP-5323 (Fab, V domains shown, also called VH: (D56G)) VH: EVQLVQSGAEVKKPGASVKVSCKASGYTFTTYTIHWVRQAPGQGLEWIGYINPSSGYTRYNPKFKDRVTLTTDKSTSTAYMELRSLRSDDTAVYYCQTGTRDYWGQGTTVTVSS VL: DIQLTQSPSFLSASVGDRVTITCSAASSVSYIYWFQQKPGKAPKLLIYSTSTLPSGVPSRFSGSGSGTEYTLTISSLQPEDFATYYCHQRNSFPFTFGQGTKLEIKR , according to its measured value.
2

Textbook exercise: identify the category of the binder given here, TPP-5326 (Fab, V domains shown, also called VH: (N61A)) VH: EVQLVQSGAEVKKPGASVKVSCKASGYTFTTYTIHWVRQAPGQGLEWIGYINPSSDYTRYAPKFKDRVTLTTDKSTSTAYMELRSLRSDDTAVYYCQTGTRDYWGQGTTVTVSS VL: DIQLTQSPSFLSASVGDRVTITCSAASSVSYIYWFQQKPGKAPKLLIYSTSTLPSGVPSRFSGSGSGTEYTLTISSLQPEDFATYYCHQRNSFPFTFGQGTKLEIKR , according to its measured value.
0
